System: giant foxtail (Setaria faberi)
Experiment: Test G Pre-Emergence Protocol
Assay type: in vivo
Conditions: Setaria faberi, pre-emergence, 312 h, 62.5 g ai/ha, evaluated after 13 days, 100=total damage to plant, 0=no damage to plant, read-out: plant damage rating, Foxtail, Giant
endpoint_name: pest or weed control at 62.5 g/ha
Include the unit right after the number.

{"compound": "Cc1onc(NC(=O)[C@@H]2C(=O)N(C)C[C@H]2c2ccc(C(F)(F)F)cc2)c1Cl (racemic) [Compound 1580]", "pest or weed control at 62.5 g/ha": "0%"}
{"compound": "CN1C[C@H](c2ccc(C(F)(F)F)cc2)[C@@H](C(=O)Nc2ncccc2[N+](=O)[O-])C1=O (racemic) [Compound 1431]", "pest or weed control at 62.5 g/ha": "0%"}

Prompt: Return the recorded pest or weed control at 62.5 g/ha value; entry: CN1C[C@H](c2ccc(C(F)(F)F)cc2)[C@@H](C(=O)Nc2nccc(C(F)(F)F)c2F)C1=O (racemic) [Compound 1436]
Response: 0%

Prompt: Return the recorded pest or weed control at 62.5 g/ha value; entry: CN1C[C@@H](c2ccnc(C(F)(F)F)c2)[C@H](C(=O)Nc2cccc(F)c2F)C1=O (racemic) [Compound 1585]
Response: 80%

Prompt: Return the recorded pest or weed control at 62.5 g/ha value; entry: CCOC(=O)c1cccc([C@H]2CN(C)C(=O)[C@@H]2C(=O)Nc2ccccc2F)c1 (racemic) [Compound 1438]
Response: 0%

Prompt: Return the recorded pest or weed control at 62.5 g/ha value; entry: CN1C[C@@H](c2ccc(C(F)(F)F)cc2)[C@H](C(=O)Nc2cccc(F)n2)C1=O [Compound 1489]
Response: 0%

Prompt: Return the recorded pest or weed control at 62.5 g/ha value; entry: Cc1cc(NC(=O)[C@@H]2C(=O)N(C)C[C@H]2c2ccc(C(F)(F)F)cc2)ccc1F (racemic) [Compound 1593]
Response: 10%

Prompt: Return the recorded pest or weed control at 62.5 g/ha value; entry: CN1C[C@@H](c2ccc(C(F)(F)F)cc2)[C@H](C(=O)Nc2cncc(Cl)n2)C1=O (racemic) [Compound 1574]
Response: 0%

Prompt: Return the recorded pest or weed control at 62.5 g/ha value; entry: Cc1cc([C@@H]2CN(C)C(=O)[C@H]2C(=O)Nc2cccc(F)c2F)cnc1Cl (racemic) [Compound 1493]
Response: 80%

Prompt: Return the recorded pest or weed control at 62.5 g/ha value; entry: Cc1c(NC(=O)[C@H]2C(=O)N(C)C[C@@H]2c2ccc(C(F)(F)F)cc2)cccc1[N+](=O)[O-] (racemic) [Compound 1423]
Response: 60%

Prompt: Return the recorded pest or weed control at 62.5 g/ha value; entry: Cc1ccc([C@H]2CN(C)C(=O)[C@@H]2C(=O)Nc2ccc(F)nc2F)cc1 [Compound 1402]
Response: 90%

###

Tested on: Galium (catchweed bedstraw, Galium aparine)
Experiment: Test A postemergence
Type: in vivo
Settings: Galium, post-emergence, 240 h, Postemergence, 31 g ai/ha; visual injury after approx. 10 d; 0 to 100 scale, 0 no effect, 100 complete control; read-out: Plant response rating, Galium
endpoint_name: pest or weed control at 31 g/ha (%)
# output: bare number, implied unit %

Examples with their reported pest or weed control at 31 g/ha follow.
{"entry_smiles": "CN1CC[C@H](c2cccc(OC(F)(F)F)c2)[C@@H](C(=O)Nc2cccc(F)c2F)C1=O", "assay_value": 0}
{"entry_smiles": "O=C(Nc1cccc(F)c1F)[C@H]1C(=O)N(OCc2ccccc2)CC[C@@H]1c1cccc(Cl)c1", "assay_value": 0}
{"entry_smiles": "CN1C[C@H](c2ccc(C(F)F)cc2)[C@@H](C(=O)Nc2ccccc2F)C1=O", "assay_value": 30}

Now turn to the next compound.
Prompt: Return the recorded pest or weed control at 31 g/ha value; entry: C=C(C)c1ccc([C@H]2CN(C)C(=O)[C@@H]2C(=O)Nc2cccc(F)c2C)cc1
Response: 0
